tested on: Rattus norvegicus; assay: Antivasopressor activity in vivo in phenoxybenzamine pre-treated rats.; format: functional
Starred links: 1 amine or outer side, 2 acyl side, 3 side chain; linkers in the order of their positions; H or OH if unused. Positions of bridges follow the written chain, without caps; N, C: chain ends. Non-standard residues stand in square brackets, D forms with d. Residues, ends and D or L forms follow the SMILES beside them. X1 = O=C(CC1(S[*:2])CCCCC1)[*:1]; Orn = NCCC[C@H](N)C(=O)O
RECORDED_ENDPOINT: ED (nM/kg)
Numbers only here, please. The scale is nM/kg.

Past entries and their recorded results:
CCOc1ccc(C[C@H]2NC(=O)CC3(CCCCC3)SSC[C@@H](C(=O)N3CCC[C@H]3C(=O)N[C@@H](CCCN=C(N)N)C(=O)NCC(N)=O)NC(=O)[C@H](CC(N)=O)NC(=O)[C@H](C(C)C)NC(=O)[C@H](Cc3ccccc3)NC2=O)cc1 ([dY](Et)FVNCPRG-NH2; linker N-5 via X1)    0.45
COc1ccc(C[C@H]2NC(=O)CC3(CCCCC3)SSC[C@@H](C(=O)N3CCC[C@H]3C(=O)N[C@@H](CCCN=C(N)N)C(=O)NCC(N)=O)NC(=O)[C@H](CC(N)=O)NC(=O)[C@H](CCC(N)=O)NC(=O)[C@H](Cc3ccccc3)NC2=O)cc1    0.36
COc1ccc(C[C@@H]2NC(=O)CC3(CCCCC3)SSC[C@@H](C(=O)N3CCC[C@H]3C(=O)N[C@@H](CCCN=C(N)N)C(=O)NCC(N)=O)NC(=O)[C@H](CC(N)=O)NC(=O)[C@H](C(C)C)NC(=O)[C@H](Cc3ccccc3)NC2=O)cc1    0.29

(Q) What does the record list as ED for CC[C@H](C)[C@@H]1NC(=O)[C@H](Cc2ccc(OC)cc2)NC(=O)CC2(CCCCC2)SSC[C@@H](C(=O)N2CCC[C@H]2C(=O)N[C@@H](CCCN)C(=O)NCC(N)=O)NC(=O)[C@H](CC(N)=O)NC(=O)[C@H](CCC(N)=O)NC1=O (Y(Me)IQNCP[Orn]G-NH2; linker N-5 via X1) ?
(A) 0.8

(Q) What does the record list as ED for CCOc1ccc(C[C@H]2NC(=O)CC3(CCCCC3)SSC[C@@H](C(=O)N3CCC[C@H]3C(=O)N[C@@H](CCCCN)C(=O)NCC(N)=O)NC(=O)[C@H](CC(N)=O)NC(=O)[C@H](C(C)C)NC(=O)[C@H](Cc3ccccc3)NC2=O)cc1 ([dY](Et)FVNCPKG-NH2; linker N-5 via X1) ?
(A) 0.48
